- Tested on: LS patient-derived skin fibroblasts
- experimental_details: Anti-RSL3-induced cell death activity assay
- Format: cell-based
- measurement_context: Homo sapiens, Skin fibroblast; co-added with RSL3 at a concentration giving 10%-20% cell viability; viable cells 24 h after addition; read-out: Anti-RSL3-induced cell death effect EC50
- Protocol: RSL3 is a glutathione peroxidase 4 (GPx4) inhibitor that specifically induces ferroptosis. Ferroptosis is an iron-dependent non-apoptotic type of cell death caused by lipid peroxidation. After 24 h of incubation, the reagents were added to the RSL3 (−) derivative (−) and RSL3 ( +) derivative ( +) groups. […] The percentage of viable cells was measured 24 h after addition of each reagent.
readout_type: EC50

Documented EC50 of CN1CCc2cccc3c2[C@H]1Cc1ccc(-c2ccccc2)c(O)c1-3 [D45] : 0.745 µM

---

- target_system: dopamine D2 receptors (Homo sapiens, UniProt P14416)
- Sequence (P14416 whole entry): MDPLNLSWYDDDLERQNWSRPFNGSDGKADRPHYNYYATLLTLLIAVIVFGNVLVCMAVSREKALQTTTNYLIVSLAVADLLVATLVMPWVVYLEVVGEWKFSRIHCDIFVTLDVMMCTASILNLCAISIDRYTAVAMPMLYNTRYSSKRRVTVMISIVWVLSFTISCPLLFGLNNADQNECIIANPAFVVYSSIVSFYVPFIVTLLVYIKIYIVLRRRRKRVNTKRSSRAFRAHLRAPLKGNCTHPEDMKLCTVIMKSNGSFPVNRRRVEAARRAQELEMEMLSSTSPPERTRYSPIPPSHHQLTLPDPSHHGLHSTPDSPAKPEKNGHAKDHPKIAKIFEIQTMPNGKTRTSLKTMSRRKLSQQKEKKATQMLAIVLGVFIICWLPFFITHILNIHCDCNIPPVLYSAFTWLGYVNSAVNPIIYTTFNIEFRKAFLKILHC
- experimental_details: Dopamine D2 receptor agonist assay (GeneBLAzer D2-Gqo5-NFAT-bla CHO-K1 reporter)
- measurement_context: CHO cells stably expressing dopamine D2 receptors; NA: no activity; read-out: Dopamine D2 receptor agonist (DA) activity EC50
readout_type: pEC50
Scale: negative log10 of molar concentration, which is what pEC50 denotes.

Documented pEC50 of Oc1ccc2c(c1O)-c1cccc3c1[C@@H](C2)NCC3 [D4] : 6.24

Documented pEC50 of CN1CCc2cccc3c2[C@H]1Cc1ccc(OCCCN)c(O)c1-3 [D27] : 6.60

Documented pEC50 of CN1CCc2cccc3c2[C@H]1Cc1ccc(-c2ccccc2)c(O)c1-3 [D45] : 5.58

Documented pEC50 of CN1CCc2cccc3c2[C@H]1Cc1ccc(OCCCO)c(O)c1-3 [D38] : 5.44
